These data points were gathered from patent US8273769B2.

# Measurement target: CRTH2 (Homo sapiens, UniProt Q9Y5Y4)
# Sequence (Q9Y5Y4 whole entry): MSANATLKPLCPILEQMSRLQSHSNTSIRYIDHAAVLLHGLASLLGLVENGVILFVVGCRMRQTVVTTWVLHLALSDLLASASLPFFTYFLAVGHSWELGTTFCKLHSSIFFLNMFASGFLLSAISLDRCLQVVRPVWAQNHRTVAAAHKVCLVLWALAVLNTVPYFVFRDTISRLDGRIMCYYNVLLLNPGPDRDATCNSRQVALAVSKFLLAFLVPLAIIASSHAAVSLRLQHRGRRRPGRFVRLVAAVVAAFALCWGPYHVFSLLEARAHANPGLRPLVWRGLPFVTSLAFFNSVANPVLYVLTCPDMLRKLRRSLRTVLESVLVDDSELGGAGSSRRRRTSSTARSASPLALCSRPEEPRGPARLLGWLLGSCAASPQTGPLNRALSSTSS
# Assay summary: Radioligand binding Scintillation Proximity Assay ([3H]PGD2, hCRTH2-CHO cell membranes)
# Design: host or cells: CHO cells
# Condition set: 1.5 nM [3H]PGD2, hCRTH2-CHO cell membranes, SPA
pIC50: −log10 of the molar value.
Measurement kind: pIC50

Look over these answered cases.
Molecule	Measurement target	pIC50
Cc1ccc(S(=O)(=O)c2ccccc2)cc1C#Cc1cc(C#N)ccc1OCC(=O)O	CRTH2 (Homo sapiens, UniProt Q9Y5Y4)	7.96
CCCS(=O)(=O)c1ccc(C)c(C#Cc2cc(C#N)ccc2OCC(=O)O)c1	CRTH2 (Homo sapiens, UniProt Q9Y5Y4)	8.05
CS(=O)(=O)c1cc(C#Cc2cc(Cl)ccc2OCC(=O)O)ccc1-c1ccc(Cl)cc1	CRTH2 (Homo sapiens, UniProt Q9Y5Y4)	7.77
CCC(C)NS(=O)(=O)c1ccc(C)c(C#Cc2cc(Cl)ccc2OCC(=O)O)c1 (stereo not shown)	CRTH2 (Homo sapiens, UniProt Q9Y5Y4)	8.52
CCCS(=O)(=O)c1cccc(C#Cc2cc(-c3cccs3)ccc2OCC(=O)O)c1	CRTH2 (Homo sapiens, UniProt Q9Y5Y4)	7.82
CC1(O)c2ccc(C#Cc3cc(Cl)ccc3OCC(=O)O)cc2S(=O)(=O)C1(C)C (stereo not shown)	CRTH2 (Homo sapiens, UniProt Q9Y5Y4)	7.49
CC(C)S(=O)(=O)c1ccc(F)c(C#Cc2cc(Cl)ccc2OCC(=O)O)c1	CRTH2 (Homo sapiens, UniProt Q9Y5Y4)	8.30
Cc1ccc(S(=O)(=O)N2CCN(C)CC2)cc1C#Cc1cc(Cl)ccc1OCC(=O)O	CRTH2 (Homo sapiens, UniProt Q9Y5Y4)	7.57

(I) CCCN(CCC)S(=O)(=O)c1ccc(C)c(C#Cc2cc(Cl)ccc2OCC(=O)O)c1
(II) CS(=O)(=O)c1cc(C#Cc2cc(Cl)ccc2OCC(=O)O)ccc1-c1ccc(C(F)(F)F)cc1
Ask: Identify the entry with the larger pIC50. Options: I and II Refer to your chosen entry by its label in the reply.
Result: I

----------
# Measurement target: CRTH2 (Homo sapiens)
# Assay summary: Radioligand binding Scintillation Proximity Assay ([3H]PGD2, hCRTH2-CHO cell membranes)
# Design: host or cells: CHO cells
# Condition set: 1.5 nM [3H]PGD2, hCRTH2-CHO cell membranes, SPA
pIC50: −log10 of the molar value.
Measurement kind: pIC50

See these solved cases before continuing.
Compound	Endpoint result
O=C(O)COc1ccc(Cl)cc1C#Cc1cccc(Cl)c1 [Example 3]	7.59
Cc1ncccc1C#Cc1cc(Cl)ccc1OCC(=O)O [Example 22]	6.76
CC(C)Cc1ccncc1C#Cc1cc(Cl)ccc1OCC(=O)O [Example 43]	8.22
O=C(O)COc1ccc(Cl)cc1C#Cc1ccc(Cl)cc1 [Example 2]	7.04
O=C(O)COc1ccc(Cl)cc1C#Cc1ccc(C(=O)N2CCOCC2)cc1 [Example 124]	6.97

(a) Cc1ccc(S(=O)(=O)N2CCCCC2)cc1C#Cc1cc(Cl)ccc1OCC(=O)O [Example 88]
(b) O=C(O)COc1ccc(Cl)cc1C#Cc1cncc(S(=O)(=O)NCCO)c1 [Example 46]
(c) CS(=O)(=O)c1cncc(C#Cc2cc(Cl)ccc2OCC(=O)O)c1 [Example 36]
Ask: Please order the records by their reported pIC50, lowest number first. // rank by listing labels in the order requested
Result: b, c, a
(b: 6.49, c: 7.12, a: 8.15)
